// provenance: ChEMBL document CHEMBL1149177

tested on: Mus musculus; assay: In vivo inhibition of brain N-methyl-histamine formation in mice when administered perorally in presence of oxalate salt; type: functional; conditions: po
recorded-endpoint: ED50

Given the molecule FC(F)(F)c1ccccc1OCCCc1c[nH]cn1 , what is its reported ED50?
> 10 mg/kg

Given the molecule N#Cc1cccc(OCCCc2cnc[nH]2)c1 , what is its reported ED50?
> 10 mg/kg

Given the molecule CCc1cccc(OCCCc2c[nH]cn2)c1 , what is its reported ED50?
~1 mg/kg

Given the molecule FC(F)(F)c1cccc(SCCc2c[nH]cn2)c1 , what is its reported ED50?
0.94 mg/kg

Given the molecule Brc1cccc(OCCCc2c[nH]cn2)c1 , what is its reported ED50?
> 10 mg/kg

Given the molecule S=C(NC1CCCCC1)N1CCC(c2cnc[nH]2)CC1 [THIOPERAMIDE] , what is its reported ED50?
1 mg/kg

---

Give ED50 for every item shown.
test system: Mus musculus; assay: In vivo inhibition of brain N-methyl-histamine formation in mice when administered perorally in presence of oxalate salt; type: functional; details: po

Request: ED50, test system Mus musculus, entry O=[N+]([O-])c1cccc(OCCCc2c[nH]cn2)c1
1.1 mg/kg

Request: ED50, test system Mus musculus, entry FC(F)(F)c1cccc(CCCCc2c[nH]cn2)c1
6.5 mg/kg

Request: ED50, test system Mus musculus, entry c1ccc(OCCCc2c[nH]cn2)cc1
> 10 mg/kg

Request: ED50, test system Mus musculus, entry CC(C)c1cccc(OCCCc2c[nH]cn2)c1
0.5 mg/kg

Request: ED50, test system Mus musculus, entry Cc1cccc(OCCCc2cnc[nH]2)c1
> 10 mg/kg

Request: ED50, test system Mus musculus, entry CC(C)(C)c1cccc(OCCCc2c[nH]cn2)c1
0.8 mg/kg

Request: ED50, test system Mus musculus, entry FC(F)(F)c1cccc(OCCc2c[nH]cn2)c1
< 10 mg/kg

Request: ED50, test system Mus musculus, entry FC(F)(F)c1cccc(OCCCc2c[nH]cn2)c1
0.6 mg/kg

Request: ED50, test system Mus musculus, entry CC(=O)c1cccc(OCCCc2c[nH]cn2)c1
0.4 mg/kg

Request: ED50, test system Mus musculus, entry FC(F)(F)c1cc(OCCCc2c[nH]cn2)cc(C(F)(F)F)c1
4.8 mg/kg

Request: ED50, test system Mus musculus, entry FC(F)(F)c1ccc(OCCCc2c[nH]cn2)cc1
0.6 mg/kg

Request: ED50, test system Mus musculus, entry N#Cc1ccc(OCCCc2c[nH]cn2)cc1
0.54 mg/kg

Request: ED50, test system Mus musculus, entry FC(F)(F)c1cccc(SCCCc2c[nH]cn2)c1
> 10 mg/kg

---

target: UniProtKB Q9QYN8; assay: In vitro intrinsic activity against histamine H3 receptor using [3H]histamine as radioligand from rat cerebral cortex synaptosomes with respect to histamine; format: subcellular; conditions: Brain
Sequence (Q9QYN8 whole entry): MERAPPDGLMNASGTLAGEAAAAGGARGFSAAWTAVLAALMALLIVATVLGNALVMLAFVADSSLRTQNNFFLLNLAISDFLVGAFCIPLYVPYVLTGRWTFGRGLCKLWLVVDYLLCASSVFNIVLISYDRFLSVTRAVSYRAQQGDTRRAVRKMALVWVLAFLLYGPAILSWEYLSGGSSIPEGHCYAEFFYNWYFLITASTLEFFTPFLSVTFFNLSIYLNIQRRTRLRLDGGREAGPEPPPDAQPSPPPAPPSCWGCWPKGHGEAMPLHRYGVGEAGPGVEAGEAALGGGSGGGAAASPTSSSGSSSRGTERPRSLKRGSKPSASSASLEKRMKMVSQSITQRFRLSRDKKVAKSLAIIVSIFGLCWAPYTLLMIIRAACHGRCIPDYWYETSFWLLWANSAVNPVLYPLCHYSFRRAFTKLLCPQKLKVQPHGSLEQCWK
recorded-endpoint: Intrinsic activity
Give your answer as a number; write no unit.

Given the compound CC(C)(C)c1cccc(OCCCc2c[nH]cn2)c1 , what is its reported Intrinsic activity?
0.28

Given the compound CC(C)c1cccc(OCCCc2c[nH]cn2)c1 , what is its reported Intrinsic activity?
0.3

Given the compound FC(F)(F)c1cccc(SCCc2c[nH]cn2)c1 , what is its reported Intrinsic activity?
0.4

Given the compound O=[N+]([O-])c1cccc(OCCCc2c[nH]cn2)c1 , what is its reported Intrinsic activity?
0.1

Given the compound CCc1cccc(OCCCc2c[nH]cn2)c1 , what is its reported Intrinsic activity?
0.2

Given the compound CC(=O)c1cccc(OCCCc2c[nH]cn2)c1 , what is its reported Intrinsic activity?
0.15
